Where do these numbers come from? They come from patent US7157430B2.

- Target Or Test System: mICE (Mus musculus, UniProt P29452)
- Sequence (P29452 123-296 limits assumed): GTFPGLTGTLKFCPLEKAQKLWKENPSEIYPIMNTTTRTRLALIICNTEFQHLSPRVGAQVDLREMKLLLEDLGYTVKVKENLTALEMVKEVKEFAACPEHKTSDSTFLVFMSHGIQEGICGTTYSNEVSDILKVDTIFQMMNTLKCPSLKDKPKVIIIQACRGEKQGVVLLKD
- Sequence (P29452 315-402 limits assumed): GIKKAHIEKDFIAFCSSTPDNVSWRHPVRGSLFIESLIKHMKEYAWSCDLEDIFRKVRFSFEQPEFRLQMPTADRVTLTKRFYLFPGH
- Procedure Details: Dissociation constant Ki and irreversible rate constant k3 for irreversible inhibitors, ICE
- Condition Details: continuous assay 60 min, reaction initiated by adding enzyme
pKi: −log10 of the molar value. Where a SMILES comes first, the peptide text is derived from it. The star is where a group is joined. Cbz = O=C(OCc1ccccc1)*; CH2F = FC*
Quantity Measured: pKi

• CC(C)[C@H](NC(=O)COc1cccc2ccccc12)C(=O)N[C@@H](CC(=O)O)C(=O)COP(C)(C)=O [Example 105] = 6.38
• CC(C)[C@H](NC(=O)COc1ccc2ccccc2c1)C(=O)NC(CC(=O)O)C(=O)CF (mixture of isomers) [Example 54] = 5.96
• CC(C)[C@H](NC(=O)COc1cccc2ccccc12)C(=O)N[C@@H](CC(=O)O)C(=O)COc1ccc(F)cc1 [Example 67] = 6.66
• CC(C)[C@H](NC(=O)CCOc1ccccc1)C(=O)N[C@@H](CC(=O)O)C(=O)COc1c(F)c(F)cc(F)c1F [Example 160] = 5.93
• CC(C)[C@H](NC(=O)COc1ccc2ccccc2c1)C(=O)N[C@@H](CC(=O)O)C(=O)COc1c(F)c(F)cc(F)c1F [Example 157] = 6.65
• CC(C)[C@H](NC(=O)COc1ccccc1-c1ccccc1)C(=O)N[C@@H](CC(=O)O)C(=O)COc1c(F)cc(F)cc1F [Example 151] = 6.46
• CC(C)[C@H](NC(=O)COc1cccc2ccccc12)C(=O)N[C@@H](CC(=O)O)C(=O)COn1nnc2ccccc2c1=O [Example 62] = 6.60
• CC(NC(=O)C(NC(=O)OCc1ccccc1)C(C)C)C(=O)NC(CC(=O)O)C(=O)CF (stereo not drawn) [refer., Cbz-ValAlaAsp-CH2F, reference compound] (Cbz-Val-Ala-Asp-CH2F; configuration not given here) = 7.82
• CC(C)C[C@H](NC(=O)COc1c(C(=O)O)ccc2ccccc12)C(=O)N[C@@H](CC(=O)O)C(=O)COc1c(F)c(F)cc(F)c1F [Example 167] = 6.30
• CC(C)[C@H](NC(=O)COc1cccc2ccccc12)C(=O)N[C@@H](CC(=O)O)C(=O)COc1c(F)c(F)cc(F)c1F [Example 79] = 7.04
• CC(C)C[C@H](NC(=O)COc1ccccc1-c1ccccc1)C(=O)NC(CC(=O)O)C(=O)CF (mixture of isomers) [Example 57] = 6.92
